Listing of entries alongside the reported CC50 at 72 h.
test: in vitro; details: human, HEL cells
RECORDED_METRIC: CC50 at 72 h (µM)

[
  {
    "SMILES_STRING": "O=c1[nH]c(=O)n([C@H]2C[C@H](O)[C@@H](CO)O2)cc1-c1cn(-c2ccc(Br)cc2)nn1",
    "CMP": "=",
    "VALUE_OBSERVED": 1
  },
  {
    "SMILES_STRING": "O=c1[nH]c(=O)n([C@H]2C[C@H](O)[C@@H](CO)O2)cc1/C=C/Br",
    "CMP": ">",
    "VALUE_OBSERVED": 250
  },
  {
    "SMILES_STRING": "O=c1[nH]c(=O)n([C@H]2C[C@H](O)[C@@H](CO)O2)cc1-c1cn(-c2ccc(Cl)cc2)nn1",
    "CMP": "=",
    "VALUE_OBSERVED": 7.4
  },
  {
    "SMILES_STRING": "O=c1[nH]c(=O)n([C@H]2C[C@H](O)[C@@H](CO)O2)cc1-c1cn(-c2ccccc2)nn1",
    "CMP": "=",
    "VALUE_OBSERVED": 270
  }
]

###

tested on: Human betaherpesvirus 5; test: microbe, parasite or virus in culture; conditions: Human betaherpesvirus 5, Davis, HEL
pEC50: −log10 of the molar value.
Listing of entries alongside the reported pEC50.

[
  {
    "SMILES_STRING": "CCCCc1ccc(-n2cc(-c3cn([C@H]4C[C@H](O)[C@@H](CO)O4)c(=O)[nH]c3=O)nn2)cc1",
    "TARGET_DESC": "Human betaherpesvirus 5",
    "pEC50": "< 4.30"
  },
  {
    "SMILES_STRING": "O=c1[nH]c(=O)n([C@H]2C[C@H](O)[C@@H](CO)O2)cc1-c1cn(-c2ccc([N+](=O)[O-])cc2)nn1",
    "TARGET_DESC": "Human betaherpesvirus 5",
    "pEC50": "< 4.30"
  },
  {
    "SMILES_STRING": "NC(=O)c1ncn([C@@H]2O[C@H](CO)[C@@H](O)[C@H]2O)n1",
    "TARGET_DESC": "Human betaherpesvirus 5",
    "pEC50": "< 4.00"
  },
  {
    "SMILES_STRING": "Nc1ccn(C[C@@H](CO)OCP(=O)(O)O)c(=O)n1",
    "TARGET_DESC": "Human betaherpesvirus 5",
    "pEC50": 6.40
  },
  {
    "SMILES_STRING": "O=c1[nH]c(=O)n([C@H]2C[C@H](O)[C@@H](CO)O2)cc1-c1cn(-c2c(F)cccc2F)nn1",
    "TARGET_DESC": "Human betaherpesvirus 5",
    "pEC50": 4.74
  },
  {
    "SMILES_STRING": "O=c1[nH]c(=O)n([C@H]2C[C@H](O)[C@@H](CO)O2)cc1-c1cn(-c2ccc(Br)cc2)nn1",
    "TARGET_DESC": "Human betaherpesvirus 5",
    "pEC50": 4.60
  },
  {
    "SMILES_STRING": "CC(C)(C)c1ccc(-n2cc(-c3cn([C@H]4C[C@H](O)[C@@H](CO)O4)c(=O)[nH]c3=O)nn2)cc1",
    "TARGET_DESC": "Human betaherpesvirus 5",
    "pEC50": "< 4.30"
  },
  {
    "SMILES_STRING": "O=c1[nH]c(=O)n([C@H]2C[C@H](O)[C@@H](CO)O2)cc1-c1cn(-c2ccccc2)nn1",
    "TARGET_DESC": "Human betaherpesvirus 5",
    "pEC50": "< 3.57"
  },
  {
    "SMILES_STRING": "CC(C)c1ccc(-n2cc(-c3cn([C@H]4C[C@H](O)[C@@H](CO)O4)c(=O)[nH]c3=O)nn2)cc1",
    "TARGET_DESC": "Human betaherpesvirus 5",
    "pEC50": 3.73
  },
  {
    "SMILES_STRING": "O=c1[nH]c(=O)n([C@H]2C[C@H](O)[C@@H](CO)O2)cc1-c1cn(-c2ccc(OC(F)(F)F)cc2)nn1",
    "TARGET_DESC": "Human betaherpesvirus 5",
    "pEC50": "< 3.66"
  },
  {
    "SMILES_STRING": "CSc1ccc(-n2cc(-c3cn([C@H]4C[C@H](O)[C@@H](CO)O4)c(=O)[nH]c3=O)nn2)cc1",
    "TARGET_DESC": "Human betaherpesvirus 5",
    "pEC50": "< 4.30"
  },
  {
    "SMILES_STRING": "O=c1[nH]c(=O)n([C@H]2C[C@H](O)[C@@H](CO)O2)cc1-c1cn(-c2cc(F)cc(F)c2)nn1",
    "TARGET_DESC": "Human betaherpesvirus 5",
    "pEC50": "< 4.30"
  },
  {
    "SMILES_STRING": "O=c1[nH]c(=O)n([C@H]2C[C@H](O)[C@@H](CO)O2)cc1-c1cn(-c2ccc(Oc3ccccc3)cc2)nn1",
    "TARGET_DESC": "Human betaherpesvirus 5",
    "pEC50": 4.79
  },
  {
    "SMILES_STRING": "O=c1[nH]c(=O)n([C@H]2C[C@H](O)[C@@H](CO)O2)cc1-c1cn(-c2ccc(Cl)cc2)nn1",
    "TARGET_DESC": "Human betaherpesvirus 5",
    "pEC50": "< 3.88"
  }
]
